# reported self-cleavage kobs at 10000 uM GlcN6P; entries follow
B1: glmS ribozyme (parent)
chain: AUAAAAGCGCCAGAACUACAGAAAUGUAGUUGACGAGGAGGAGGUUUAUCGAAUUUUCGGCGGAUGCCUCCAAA

# Variants of: B1
# EXPERIMENT DESCRIPTION: self-cleavage kobs at 10000 uM GlcN6P; higher = faster cleavage; RNA array
# SETTINGS: with glucosamine-6-phosphate
This sample holds only a part of the variants without activity.
Just the number in s⁻¹, nothing appended.

See these solved cases before continuing.
>  <RESIDUE CODES>
AUAAAAGCGCCAGAACUACAGAAAUGUAUUUGACGAGGAGGAGGUUUAUCGAGUUUUCGGCGGAUGCCUCCAAA [G29U A53G]

>  <EXPERIMENTAL READOUT>
self-cleavage kobs at 10000 uM GlcN6P

>  <UNIT INFO>
s⁻¹

>  <MEASUREMENT>
0.00417

$$$$
>  <RESIDUE CODES>
AUAAAAGCGCCAGAACUACAGAAAUGUAGUUGACGAGGAGGAGGUCUCUCGAAUUUUCGGCGGAUGCCUCCAAA [U46C A48C]

>  <EXPERIMENTAL READOUT>
self-cleavage kobs at 10000 uM GlcN6P

>  <UNIT INFO>
s⁻¹

>  <MEASUREMENT>
0.000136

$$$$
>  <RESIDUE CODES>
AUAAAAGCGCCAGAACUACAGAAAUGUAGUUGACGAGGUGGUGGUUAAUCGAAUUUUCGGCGGAUGCCUCCAAA [A39U A42U U47A]

>  <EXPERIMENTAL READOUT>
self-cleavage kobs at 10000 uM GlcN6P

>  <UNIT INFO>
s⁻¹

>  <MEASUREMENT>
0.00362

$$$$
>  <RESIDUE CODES>
AUAAAAGCGCCUGUACUACAGAAAUGUAGUUGACGAGGAGGAGGUUUAUCGAAUUUUCGGCGGAUGCCUCCAAA [A12U A14U]

>  <EXPERIMENTAL READOUT>
self-cleavage kobs at 10000 uM GlcN6P

>  <UNIT INFO>
s⁻¹

>  <MEASUREMENT>
0.00449

$$$$
>  <RESIDUE CODES>
AUAAAAGCGCCAGAACUACAGAAAUGUAGUGGACGAGGAGGAGGUUUAUCGAAGUUUCGGCGGAUGCCUCCAAA [U31G U54G]

>  <EXPERIMENTAL READOUT>
self-cleavage kobs at 10000 uM GlcN6P

>  <UNIT INFO>
s⁻¹

>  <MEASUREMENT>
0.0119

$$$$

Q: Read the entry AUAAAAGCGCCAGAACUACAGAAAUGUAUUUGACGAGGAGGAGGUGUAUCGAAUUUUGGGCGGAUGACUCCAAA [G29U U46G C58G C67A] and write its reported self-cleavage kobs at 10000 uM GlcN6P.
Result: 5.63e-05

Q: Read the entry AUAAAUGCGCCAGAACUACAGAAAUGUAGUUGACGAGGAGGAGGUUUAUCGACUUUUCGGCGGAUGCCUCCAAA [A6U A53C] and write its reported self-cleavage kobs at 10000 uM GlcN6P.
Result: 5.75e-05

Q: Read the entry AUAAAAGCGCUAUAACUACAGAAAUGUAGUUGACGAGGAGGAGGUUUAUCGAAUUUUCGGCGGAUGCCUCCAAA [C11U G13U] and write its reported self-cleavage kobs at 10000 uM GlcN6P.
Result: 5.47e-05

Q: Read the entry AUAAAAGCGCCGGAACUACAGAAAUGUAGUUGACGAGGGGGAGGUUUAUCGAAUUUUCGGCGGAUGCCUCCAAA [A12G A39G] and write its reported self-cleavage kobs at 10000 uM GlcN6P.
Result: 0.00109

Q: Read the entry AUAAAAGCGCCAUAACUACAGAAAUGUAGUUGACGAAGAGGAGGUUUAUCGAAUUUUCGGCGGAUGCCUCCAAA [G13U G37A] and write its reported self-cleavage kobs at 10000 uM GlcN6P.
Result: 6.96e-05

Q: Read the entry AUAAAAGCGCCAGAACUACAGAAAUGUAGUUGACGAGGUGGAGGUUUAUCGAAUUUUCGGCGGUUGCCUCCAAA [A39U A64U] and write its reported self-cleavage kobs at 10000 uM GlcN6P.
Result: 4.46e-05

Q: Read the entry AUAAAAGCGCCAGAACUACAGAAAUGUAGUUGACGAGGACGAGGUUUAUCGAAUUUUCGGCGGAUACCUCCAAA [G40C G66A] and write its reported self-cleavage kobs at 10000 uM GlcN6P.
Result: 0.00269

Q: Read the entry AUAAAAGCGCCUGAACUACAGAAAUGUAGUUGUCGAGGAGGAGGUUUAUCGAAUUUUCGGCGGAUGCCUCCAAA [A12U A33U] and write its reported self-cleavage kobs at 10000 uM GlcN6P.
Result: 0.000348
